- EXPERIMENTAL_TARGET: T1, human CD8 alpha (CD8A) on primary human CD8+ T cells (human, UniProt P01732 22-235)
- T1 construct: whole, on cells; also called hCD8A
- T1 sequence (P01732 22-235): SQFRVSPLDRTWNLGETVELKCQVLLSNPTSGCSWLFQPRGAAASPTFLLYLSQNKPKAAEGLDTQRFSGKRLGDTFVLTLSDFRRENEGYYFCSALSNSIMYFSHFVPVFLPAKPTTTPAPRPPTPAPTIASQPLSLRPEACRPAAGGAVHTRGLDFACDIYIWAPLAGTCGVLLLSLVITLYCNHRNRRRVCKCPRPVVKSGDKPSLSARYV
- TEST_DESCRIPTION: flow cytometry, human CD8+ T cells, 2 uM FN3
MEASUREMENT_TYPE: Human T-cell Binding 2 uM (MFI)
A number alone suffices; assume MFI.

Past entries and their recorded results:
BINDER | SCALE_UNIT | Human T-cell Binding 2 uM (MFI)
P282BR9P1357_C10 (designed binder, FN3 domain) LPAPKNLVVSRVTEDSARLSWWSNDNRPIFDSFLIQYQESEKVGEAIVLTVPGSERSYDLTGLKPGTEYTVSIYGVDVKWEGNRPVASNPLSAIFTT | MFI | 9780
P282DR9P1359_G7 (designed binder, FN3 domain) LPAPKNLVVSRVTEDSARLSWTAPDAAFDSFAITYIEKEHIEDGEAIVLTVPGSERSYDLTGLKPGTEYWVPIWGVKGGANSWPLSAIFTT | MFI | 37600
P282FR9P1361_F3 (designed binder, FN3 domain) LPAPKNLVVSRVTEDSARLSWTAPDAAFDSFDIWYAEYGYPGEAIVLTVPGSERSYDLTGLKPGTEYDVAISGAKGGPRSYPLSAIFTT | MFI | 5160

Read the next record carefully.
For this binder ( P283AR9P1362_D4 (designed binder, FN3 domain) LPAPKNLVVSRVTEDSARLSWVREHDSFDSFLIQYQESEKVGEAIVLTVPGSERSYDLTGLKPGTEYTVSIYGVDVKYDIDSRPISSNPLSAIFTT ), measured Human T-cell Binding 2 uM (MFI) is 9830

The measurements presented in this section are drawn from patent US20210032312A1.
